System: HEL
protocol summary: cell viability (% survival relative to DMSO control, bortezomib = 0%); higher = less cytotoxic
test context: 100 nM; 72 h
observation type: cell viability (%)
The figure you give is taken to be in %; do not add the unit.

Example results:
{"test smiles": "CC(C)(F)C[C@H](N[C@@H](c1ccc(-c2ccc(S(C)(=O)=O)cc2)cc1)C(F)(F)F)C(=O)NC1(C#N)CC1", "cell viability (%)": 99.9}
{"test smiles": "Cl.NC1=CCCN1Cc1nc(O)nc(O)c1Cl", "cell viability (%)": 112}
{"test smiles": "O=C(/C=C/c1cccnc1)NCCCCC1CCN(C(=O)c2ccccc2)CC1", "cell viability (%)": 1.75}
{"test smiles": "O=C(C(=O)c1ccc(Br)cc1)c1ccc(Br)cc1", "cell viability (%)": 120}
{"test smiles": "O=C(Oc1ccc([N+](=O)[O-])cc1)N1CCC(C(O)(c2ccc3c(c2)OCO3)c2ccc3c(c2)OCO3)CC1", "cell viability (%)": 120}

Inquiry: Tell me reported cell viability for "Oc1ncc(F)c(O)n1" , tested with HEL.
Reply text: 84.2

Inquiry: Reported cell viability for HEL, given "CN(C)C(=O)n1nnnc1Cc1ccc(-c2ccccc2)cc1" ?
Reply text: 102

Inquiry: Entry "CCCCC/C=C\C/C=C\C/C=C\C/C=C\CCCC(=O)C(F)(F)F" , system HEL: what cell viability was measured?
Reply text: 118

Inquiry: Query cell viability on HEL for "C#CCN[C@@H]1CCc2ccccc21"
Reply text: 117

---

Test system: KCL-22
protocol summary: cell viability (% survival relative to DMSO control, bortezomib = 0%); higher = less cytotoxic
test context: 100 nM; 72 h
observation type: cell viability (%)
Give just the number in %; leave the unit off.

{"molecule": "Cc1cc(O)c2c(c1)C(=O)c1cc(O)cc(O)c1C2=O [Emodin]", "system": "KCL-22", "value reported": 96.6}
{"molecule": "Cn1c2cc(S(C)=O)sc2c2cnn(Cc3cccc(N)c3)c(=O)c21 (stereo unspecified) [TEPP-46]", "system": "KCL-22", "value reported": 97.2}
{"molecule": "CC(C)(CS(=O)(=O)[O-])NC(=O)CC[N+](C)(C)CCO", "system": "KCL-22", "value reported": 94.1}
{"molecule": "O=NN(CCCl)C(=O)NCCCl [Carmustine]", "system": "KCL-22", "value reported": 104}
{"molecule": "Nc1nc(O)c2c(CCc3ccc(C(=O)N[C@@H](CCC(=O)O)C(=O)O)cc3)c[nH]c2n1 [Pemetrexed]", "system": "KCL-22", "value reported": 78.4}

Inquiry: Could you share which cell viability value was measured for Clc1cc(Cl)c(OCC#CI)cc1Cl [Haloprogin] ?
Reply text: 104

Inquiry: Tell me the measured cell viability of NCc1ccc(-c2cccnc2)s1 [(5-Pyrid-3-YLTHIEN-2-YL)METHYLAMINE] , please.
Reply text: 91.6

Inquiry: Which cell viability value is on record for CN1CC(=O)N2[C@H](c3ccc4c(c3)OCO4)c3[nH]c4ccccc4c3C[C@@H]2C1=O [Tadalafil] ?
Reply text: 92

Inquiry: So what's the measured cell viability for this one? C#CCN[C@@H]1CCc2ccccc21 [Rasagiline]
Reply text: 98.4

Inquiry: Data request, read-out cell viability, for Cn1cc(C[C@@H](N)C(=O)O)c2ccccc21 [Indoximod]
Reply text: 82.5

Inquiry: What value of measured cell viability is listed for CN(C)CCNC(=O)c1cccn2c(=O)c3cc4ccccc4cc3nc12 [Bmh-21] ?
Reply text: 98.7

Inquiry: Consider the molecule NS(=O)(=O)c1ccc(NC(=O)Cc2ccccc2)cc1 [4-(2-Phenylacetamido)Benzenesulfonamide] and give its measured cell viability.
Reply text: 83.9

Inquiry: Data request, read-out cell viability, for Cl.OC[C@H]1NC[C@H](O)[C@@H](O)[C@H]1O [Migalastat]
Reply text: 101
